Data origin: PubChem BioAssay

ASSAY REMARKS: binders of probe aFGF10 on microarray, primary screen, stem cell growth factor project, biochemical, small-molecule microarray, fluorescence 635/667 (AID 1071);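 also: score merges 667 nm spot intensity and signal to noise from triplicate slides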
REPORTED CONDITIONS: higher = more signal
Each record's composite z-score is compared with low range: < 0.2; mid range: ≥ 0.2 and < 0.5; high range: ≥ 0.5 to give its class.

Some entries whose results are on file:
Query: Class for `CCN1C(=O)[C@H]2[C@H]3[C@H](O)[C@H](O)CC(=NOC[C@@H](O)[C@H]4O[C@@H]5OC(C)(C)O[C@@H]5[C@H]4O)[C@@H]3CC[C@H]2C1=O` ?
Response: mid range

Query: What do we get for `CC(=O)OC[C@H]1O[C@H](CC=NO[C@H](C)c2cn([C@@H]3COC[C@H]3O)nn2)C=C[C@@H]1OC(C)=O` ?
Response: mid range

Continuing:
Query: Class for `COc1ccc(COC(=O)NN=C2C[C@@H](O)[C@@H](O)[C@@H]3[C@@H]4C(=O)N([C@@H](C)c5ccccc5)C(=O)[C@@H]4CC[C@H]23)cc1` ?
Response: low range

Query: What do we get for CCC1=NOC(CCC2CC(OC(=O)NCc3cccc4c3OCO4)CC3(CCCC(COC(=O)NCCc4ccc(Cl)cc4)O3)O2)C1 (centres undefined) ?
Response: high range

Query: What do we get for `COc1ccc(O[C@H]2C=C[C@@H](c3ccccc3)O[C@@H]2CO)cc1` ?
Response: mid range

Query: What do we get for `CCN1C(=O)[C@H]2[C@H]3[C@H](O)[C@H](O)CC(=NO[C@@H](C)c4cc(-c5c(C)cc(C)cc5C)no4)[C@@H]3CC[C@H]2C1=O` ?
Response: high range

Query: What do we get for `CCN1C(=O)[C@H]2[C@H]3[C@H](O)[C@H](O)CC(=NO[C@@H]4O[C@H](COC(C)=O)[C@@H](OC(C)=O)[C@H](OC(C)=O)[C@H]4OC(C)=O)[C@@H]3CC[C@H]2C1=O` ?
Response: high range

Query: What do we get for `O=C1[C@H]2[C@H]3[C@H](O)[C@H](O)CC(=NOC[C@@H](O)COCc4ccco4)[C@@H]3CC[C@H]2C(=O)N1Cc1ccc2c(c1)OCO2` ?
Response: low range
